- assay procedure: DUX4 transcriptional activity inhibition in cells – 293T cells, Gaussia and Italica luciferase, primary screen (AID 1224904);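 as to activity change, negative = inhibition: 0% = median of neutral control wells and -100% = median of positive control wells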
- condition label: 293T-iDUX4 ZSCAN4-Gaussia luciferase reporter, 24 h; stronger effect = lower value; concentration not given here
Among all 37,000 compounds or so, about 290 (0.78%) were called active. Inconclusive results (about 10%) are left out. The entries come from a sample that favours actives as a whole.
readout label: activity change, negative = inhibition (%)
Express the result in % but write the number alone.

Some compounds with recorded activity change, negative = inhibition:
COc1ccc2c3c(n(C)c2c1)[C@@H](CO)N(C(=O)c1ccccn1)CC31CN(C)C1; 15.3
O=C(Nc1cccc(F)c1)N1CC(=O)N2[C@H](CO)[C@H](c3ccc(C#CC4CC4)cc3)[C@@H]2C1; 2.91
COc1ccccc1C#Cc1ccc([C@@H]2[C@@H](CO)N3CCCCN(S(C)(=O)=O)C[C@@H]23)cc1; -1.08
O=C(Nc1ccccc1F)N1C[C@H]2[C@@H](c3ccccc31)[C@H](CO)N2C(=O)c1ccccn1; -3.65
COc1ccccc1C#Cc1ccc([C@H]2[C@H](CO)N3CCCCN(C(=O)C4CCC4)C[C@@H]23)cc1; -36.1

compound `C/C=C/c1ccc([C@H]2[C@@H](CO)N(S(C)(=O)=O)[C@@H]2CN(C)C(=O)CC)cc1` , activity change, negative = inhibition observed: -5.98

* * *

- assay procedure: DUX4 transcriptional activity inhibition in cells – 293T cells, Gaussia and Italica luciferase, primary screen (AID 1224904);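 as to activity change, negative = inhibition: 0% = median of neutral control wells and -100% = median of positive control wells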
- condition label: 293T-iDUX4 ZSCAN4-Gaussia luciferase reporter, 24 h; measured here: Italica tet-on control reporter; stronger effect = lower value; concentration not given here
In all, about 37,000 compounds went through this assay and about 290 (0.78%) were called active. About 10% were inconclusive and are not listed. The entries come from a sample that favours actives as a whole.
Entries annotated with measured activity change, negative = inhibition

Some molecules with recorded activity change, negative = inhibition:
COc1ccc(NC(=O)N(C)C[C@@H]2OCc3cn(nn3)CCCC(=O)N([C@H](C)CO)C[C@H]2C)c(OC)c1; 4.76%
O=C(C1CCCC1)N1CC2(C1)[C@H](c1ccccc1)[C@H](CO)N2CCC(F)(F)F; 2.75%
CO[C@@H]1CN(C)C(=O)c2cc(NS(=O)(=O)c3cn(C)cn3)ccc2OC[C@@H](C)N(CCC(F)(F)F)C[C@H]1C; 2.78%

molecule `COc1cc(CN2CC3(CN(S(=O)(=O)c4cn(C)cn4)C3)c3c(n(C)c4cc(OC)ccc34)[C@H]2CO)cc(OC)c1` , activity change, negative = inhibition observed: -0.316%

* * *

- assay procedure: DUX4 transcriptional activity inhibition in cells – 293T cells, Gaussia and Italica luciferase, primary screen (AID 1224904);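 as to activity change, negative = inhibition: 0% = median of neutral control wells and -100% = median of positive control wells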
- condition label: 293T-iDUX4 ZSCAN4-Gaussia luciferase reporter, 24 h; stronger effect = lower value; concentration not given here
Screen size: about 37,000 compounds; about 290 (0.78%) were called active. About 10% were inconclusive and are not listed. This excerpt belongs to a sample that is enriched for actives.
readout label: activity change, negative = inhibition (%)
Express the result in % but write the number alone.

compound `O=C(C1CCCC1)N1CC2(C1)[C@H](c1ccccc1)[C@H](CO)N2CCC(F)(F)F` , activity change, negative = inhibition observed: -0.604

compound `N#C[C@@H]1N[C@@H](CO)[C@@H]1c1ccc(C#Cc2ccccc2F)cc1` , activity change, negative = inhibition observed: 0.819

compound `COCC(=O)Nc1ccc2c(c1)C(=O)N(C)[C@@H]1CC[C@H](CC(=O)NCCc3ccccc3)O[C@@H]1CO2` , activity change, negative = inhibition observed: 0.635

* * *

Entries annotated with measured activity change, negative = inhibition
- assay procedure: DUX4 transcriptional activity inhibition in cells – 293T cells, Gaussia and Italica luciferase, primary screen (AID 1224904);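 as to activity change, negative = inhibition: 0% = median of neutral control wells and -100% = median of positive control wells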
- condition label: 293T-iDUX4 ZSCAN4-Gaussia luciferase reporter, 24 h; measured here: Italica tet-on control reporter; stronger effect = lower value; concentration not given here
Screen size: about 37,000 compounds; about 290 (0.78%) were called active. Not shown: some 10% with an inconclusive outcome. This is one part of a sample in which actives are shown more often than they occur.
Express the result in % but write the number alone.

Some molecules with recorded activity change, negative = inhibition:
CN1C(=O)c2cc(NC(=O)c3ccc(Cl)cc3)ccc2OC[C@@H]2O[C@@H](CC(=O)O)CC[C@H]21; 2.43
CC(C)NC(=O)Nc1ccc2c(c1)C(=O)N(C)[C@H]1CC[C@H](CC(=O)NCc3ccc(F)cc3)O[C@H]1CO2; -0.912

molecule Cc1ccccc1-c1ccc(C2[C@@H]3CN(C(=O)C4CCCCC4)C[C@H]2N3)cc1 (stereo partly specified) , activity change, negative = inhibition observed: -0.357

molecule `CO[C@H]1CN(C)C(=O)c2ccc(NC(=O)c3cccc(F)c3)cc2OC[C@@H](C)N(C(C)=O)C[C@@H]1C` , activity change, negative = inhibition observed: 2.12

molecule `COc1cccc(-c2ccc([C@@H]3[C@@H](CO)N(C(=O)c4ccccn4)[C@H]3C#N)cc2)c1` , activity change, negative = inhibition observed: -1.92

molecule O=C(CN1CCOCC1)N1C[C@@H]2N[C@H](C1)C2c1ccc(-c2ccncc2)cc1 (stereo partly specified) , activity change, negative = inhibition observed: 19.9

molecule `COc1ccccc1NC(=O)N[C@H]1C=C[C@H](CC(=O)N[C@@H](C)c2ccccc2)O[C@H]1CO` , activity change, negative = inhibition observed: -1.1

molecule `C/C=C/c1ccc2c(c1)O[C@@H](CN(C)C(=O)c1ccccn1)[C@H](C)CN([C@@H](C)CO)S2(=O)=O` , activity change, negative = inhibition observed: 3.66

molecule `CCC(=O)N1C[C@@H](O)COC[C@H]2O[C@H](CC(=O)NCC3CCCCC3)CC[C@@H]21` , activity change, negative = inhibition observed: 0.272

molecule `CN1C(=O)c2cc(NC(=O)c3cscn3)ccc2OC[C@H]2O[C@@H](CC(=O)NCC3CC3)CC[C@H]21` , activity change, negative = inhibition observed: -1.57

molecule `O=C(NC[C@@H]1[C@@H](c2ccccc2)[C@H](CO)N1C(=O)Cc1cccnc1)C1CC1` , activity change, negative = inhibition observed: 4.6

molecule `O=C(C[C@@H]1CC[C@@H]2[C@H](COC[C@H](O)CN2Cc2cccc(F)c2)O1)NCc1ccncc1` , activity change, negative = inhibition observed: -2.25

molecule `C[C@H](CO)N1C[C@H](C)[C@@H](CN(C)Cc2ccncc2)OCCCC[C@H](C)Oc2ccc(NS(=O)(=O)c3ccc(Cl)cc3)cc2C1=O` , activity change, negative = inhibition observed: 8.83

molecule `CO[C@H]1CN(C)C(=O)c2ccc(NS(C)(=O)=O)cc2OC[C@@H](C)N(Cc2ccccc2)C[C@@H]1C` , activity change, negative = inhibition observed: 1.74

molecule `CS(=O)(=O)N1CCCCN2[C@H](CO)[C@H](c3ccc(-c4cccc(C#N)c4)cc3)[C@H]2C1` , activity change, negative = inhibition observed: -1.58

molecule `COc1cccc(C(=O)Nc2ccc3c(c2)C(=O)N(C)[C@H]2CC[C@@H](CC(=O)N[C@H](C)c4ccccc4)O[C@H]2CO3)c1` , activity change, negative = inhibition observed: 0.375

* * *

Entries annotated with measured Gaussia minus Italica difference
- assay procedure: DUX4 transcriptional activity inhibition in cells – 293T cells, Gaussia and Italica luciferase, primary screen (AID 1224904)
- condition label: 293T-iDUX4 ZSCAN4-Gaussia luciferase reporter, 24 h; measured here: selective DUX4 reporter inhibition; stronger effect = lower value; concentration not given here
Among all 37,000 compounds or so, about 290 (0.78%) were called active. Inconclusive results (about 10%) are left out. What follows is part of a selection rich in actives, with near analogues and random picks from the rest.
Express the result in % but write the number alone.

Some compounds with recorded Gaussia minus Italica difference:
COCC(=O)Nc1ccc2c(c1)C(=O)N(C)[C@@H]1CC[C@@H](CC(=O)NCCCN(C)C)O[C@@H]1CO2; -2.33
O=C(C[C@H]1CC[C@@H]2[C@H](COC[C@H](O)CN2S(=O)(=O)c2ccccc2)O1)N1CCOCC1; -0.196
COc1ccc(C#Cc2ccc3c(c2)[C@H]2[C@H](CCN2Cc2nccs2)[C@@H](CO)N3)cc1; -28.6
C[C@@H]1CN([C@H](C)CO)C(=O)c2c(c3ccccc3n2C)-c2ccccc2CO[C@@H]1CN(C)Cc1ccc(F)cc1; -25.8
COc1ccc(S(=O)(=O)N2CC[C@@H]3[C@@H](CO)Nc4ccc(C#Cc5cccnc5)cc4[C@@H]32)cc1; 10.4
COc1ccccc1CN1CC[C@@H]2[C@@H](CO)Nc3ccc(C#Cc4ccccc4)cc3[C@@H]21; -16.5
CCC(=O)N(C)C[C@H]1[C@H](c2ccc(-c3ccccc3F)cc2)[C@@H](CO)N1C(C)=O; -4.34
COc1ccc(NC(=O)N(C)C[C@@H]2OCc3cn(nn3)CCCC(=O)N([C@H](C)CO)C[C@H]2C)c(OC)c1; -11.6
C[C@@H]1CN([C@H](C)CO)C(=O)c2c(c3ccccc3n2C)-c2ccccc2CO[C@@H]1CN(C)Cc1ccccc1C(F)(F)F; -36.9
CN1CCN(C(=O)C[C@@H]2CC[C@@H]3[C@H](COC[C@H](O)CN3CC3CCOCC3)O2)CC1; -3.98

compound `Cc1ccccc1S(=O)(=O)N(C)C[C@@H]1OCc2ccccc2-c2c(n(C)c3ccccc23)C(=O)N([C@H](C)CO)C[C@H]1C` , Gaussia minus Italica difference observed: -27.3

compound `C[C@H](CO)N1C[C@H](C)[C@@H](CN(C)Cc2ccc(C(F)(F)F)cc2)OCc2ccccc2-c2c(n(C)c3ccccc23)C1=O` , Gaussia minus Italica difference observed: -29.3

compound `COCC(=O)N1[C@H](CNC(=O)c2ccccn2)[C@H](c2ccccc2)[C@@H]1CO` , Gaussia minus Italica difference observed: -2.54

compound `CCS(=O)(=O)N1Cc2cc(C(=O)N(C)C)nc(-c3cccc(-c4ccc(C#N)cc4)c3)c2[C@H]1CCO` , Gaussia minus Italica difference observed: -1.75

compound `C[C@@H]1CN([C@@H](C)CO)C(=O)c2c(c3ccccc3n2C)-c2ccccc2CO[C@H]1CN(C)Cc1cccc(C(=O)O)c1` , Gaussia minus Italica difference observed: 8.28

compound `C[C@H]1CN([C@@H](C)CO)C(=O)c2c(c3ccccc3n2C)-c2ccccc2CO[C@H]1CN(C)Cc1ccc2c(c1)OCO2` , Gaussia minus Italica difference observed: 4.06
